Biological target: UniProt:O94804
Sequence (O94804 whole entry, looked up): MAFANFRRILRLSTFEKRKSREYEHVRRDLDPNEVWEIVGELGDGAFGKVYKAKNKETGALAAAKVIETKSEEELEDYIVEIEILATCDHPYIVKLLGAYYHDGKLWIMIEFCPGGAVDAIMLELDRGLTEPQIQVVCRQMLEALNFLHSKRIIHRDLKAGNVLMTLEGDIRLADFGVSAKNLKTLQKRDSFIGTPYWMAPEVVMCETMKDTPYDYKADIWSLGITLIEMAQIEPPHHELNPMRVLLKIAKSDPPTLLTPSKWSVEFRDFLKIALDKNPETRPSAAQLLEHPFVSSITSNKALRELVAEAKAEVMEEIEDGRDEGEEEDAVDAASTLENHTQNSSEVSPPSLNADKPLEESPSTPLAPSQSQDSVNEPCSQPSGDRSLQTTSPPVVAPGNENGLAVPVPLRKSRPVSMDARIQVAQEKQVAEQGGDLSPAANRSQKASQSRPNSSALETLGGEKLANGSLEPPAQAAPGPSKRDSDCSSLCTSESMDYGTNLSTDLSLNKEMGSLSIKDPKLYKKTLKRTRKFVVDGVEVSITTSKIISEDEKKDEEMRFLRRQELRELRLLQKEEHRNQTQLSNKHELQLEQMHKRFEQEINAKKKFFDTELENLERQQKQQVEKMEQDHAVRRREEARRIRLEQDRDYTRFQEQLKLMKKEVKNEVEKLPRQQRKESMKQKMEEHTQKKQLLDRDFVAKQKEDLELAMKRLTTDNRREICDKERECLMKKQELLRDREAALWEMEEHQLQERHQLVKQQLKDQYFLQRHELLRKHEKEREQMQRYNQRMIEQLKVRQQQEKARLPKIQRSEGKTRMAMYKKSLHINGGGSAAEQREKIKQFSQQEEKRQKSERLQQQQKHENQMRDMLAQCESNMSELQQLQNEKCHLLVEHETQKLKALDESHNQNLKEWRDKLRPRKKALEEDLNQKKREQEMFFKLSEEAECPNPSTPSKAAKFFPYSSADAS
Test: KINOMEscan competition binding
Settings: compound 10.0 µM
Entries and their kinase still bound, per cent of control
Give the quantity in %, number only.

chem-smiles	kinase still bound, per cent of control / %
COc1ccc(-c2ccc3c(N4CCOCC4)nc(N4C[C@@H](C)O[C@@H](C)C4)nc3n2)cc1CO	92
CC(C)n1nc(-c2cc3cc(O)ccc3[nH]2)c2c(N)ncnc21	0.5
CCC(=O)N1CCN(c2ccc(-n3c(=O)ccc4cnc5ccc(-c6cnc7ccccc7c6)cc5c43)cc2C(F)(F)F)CC1	79

Proceed to the following item.
query: What does the data say about its kinase still bound, per cent of control? Entry: "COC(=O)Nc1ccc(-c2nc(N3CCOCC3)c3cnn(C4CCN(C(=O)OC)CC4)c3n2)cc1"
result: 100
